IC50 values recorded for human PDE3B (Homo sapiens)
Write it as a number; the unit nM goes unstated.

INSERT INTO results (compound, readout, display_unit, number) VALUES
  ('O=C1CCc2cc(OCCCCc3nnnn3C3CCCCC3)ccc2N1 [cilostazol, reference compound]', 'IC50', 'nM', 912);

Fill in: IC50 on human PDE3B (Homo sapiens), entry Cc1c(CN(C)C(=O)/C=C/c2cnc3c(c2)CCC(=O)N3)oc2ccccc12 703

----------
experiment: Bone and plasma quantification of Compound B by LC-MS/MS in rat osteomyelitis model; details: in vivo, Compound A 100 mg/kg po BID, no difference between infected and non-infected tibias, read-out: bone:plasma ratio of Compound B
Readout: Kp

Identify measured Kp associated with Cc1c(CN(C)C(=O)/C=C/c2cnc3c(c2)CCC(=O)N3)oc2ccccc12 0.06 to 0.27

----------
target: human PDE3A (Homo sapiens, UniProt Q14432)
Sequence (Q14432 whole entry): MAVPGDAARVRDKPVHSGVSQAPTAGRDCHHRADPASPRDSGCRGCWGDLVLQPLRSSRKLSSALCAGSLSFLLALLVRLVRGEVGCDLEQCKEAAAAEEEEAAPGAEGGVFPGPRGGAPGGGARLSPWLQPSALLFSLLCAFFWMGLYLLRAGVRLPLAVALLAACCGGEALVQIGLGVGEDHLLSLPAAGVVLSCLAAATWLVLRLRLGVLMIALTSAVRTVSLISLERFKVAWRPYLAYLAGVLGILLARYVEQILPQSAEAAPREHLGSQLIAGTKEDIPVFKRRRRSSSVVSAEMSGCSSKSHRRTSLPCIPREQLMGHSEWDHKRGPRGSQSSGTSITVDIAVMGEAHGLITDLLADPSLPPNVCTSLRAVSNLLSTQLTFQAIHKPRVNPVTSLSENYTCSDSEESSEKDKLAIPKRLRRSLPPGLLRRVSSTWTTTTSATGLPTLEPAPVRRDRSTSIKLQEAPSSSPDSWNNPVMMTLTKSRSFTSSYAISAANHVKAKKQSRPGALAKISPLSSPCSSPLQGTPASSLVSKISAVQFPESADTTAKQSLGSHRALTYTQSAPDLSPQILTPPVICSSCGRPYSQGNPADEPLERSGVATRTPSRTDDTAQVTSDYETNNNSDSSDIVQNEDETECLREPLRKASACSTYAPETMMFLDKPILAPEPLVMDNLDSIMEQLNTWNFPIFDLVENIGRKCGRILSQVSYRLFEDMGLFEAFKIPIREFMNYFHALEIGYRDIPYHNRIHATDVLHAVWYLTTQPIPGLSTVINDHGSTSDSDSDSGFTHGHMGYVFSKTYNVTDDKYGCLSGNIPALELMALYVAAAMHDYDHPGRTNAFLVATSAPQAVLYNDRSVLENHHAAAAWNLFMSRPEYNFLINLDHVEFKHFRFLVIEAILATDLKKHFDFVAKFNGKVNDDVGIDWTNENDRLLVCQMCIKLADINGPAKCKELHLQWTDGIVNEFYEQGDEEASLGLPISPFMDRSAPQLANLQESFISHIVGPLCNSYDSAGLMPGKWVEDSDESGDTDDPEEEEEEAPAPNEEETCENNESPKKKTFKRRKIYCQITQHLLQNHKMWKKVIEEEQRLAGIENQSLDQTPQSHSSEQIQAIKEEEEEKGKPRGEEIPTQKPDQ
pIC50 by entry:
Field pIC50 (float): negative decimal logarithm of the concentration in molar.

INSERT INTO results (molecule, number) VALUES
  ('O=C1CCc2cc(OCCCCc3nnnn3C3CCCCC3)ccc2N1 [cilostazol, reference compound]', 6.38);

Please look at the following molecule next.
Fill in: pIC50 on human PDE3A (Homo sapiens, UniProt Q14432), entry Cc1c(CN(C)C(=O)/C=C/c2cnc3c(c2)CCC(=O)N3)oc2ccccc12 6.22
